TGI values for the compounds below.
tested on: CAKI-1 renal; assay: NCI tumour cell line growth inhibition, 48 h

Before answering, review these 5 worked examples.
O=C1CCC(=O)N1CNc1ccc2c(c1)S(=O)(=O)c1ccccc1O2 : > 100 µM
CNC(=O)c1cc(Oc2cccc3nc(NC(=O)Nc4cc(C(F)(F)F)cc(C(F)(F)F)c4)ccc23)ccn1 : 57.3 µM
CC(C)(C)C1CCC2c3c([nH]c4ncccc34)C3C(=O)N(c4ccccc4)C(=O)C3C2C1 (centres undefined) : > 100 µM
CC[C@H](C)C1=C(OC(C)=O)[N@+]2([O-])Oc3ccc(-c4c(O)c(O)c(-c5ccc(OC(C)=O)cc5)c(OC(C)=O)c4OC(C)=O)cc3O[C@]2([C@@H](C)CC)C(=O)N1O : > 50 µM
O=C1C[C@H](COCc2ccccc2)NC(=O)C[C@H](COCc2ccccc2)NC(=O)C[C@H](COCc2ccccc2)N1 : > 100 µM

// query Answer with the recorded TGI of O=C(NCCc1ccccc1)Nc1ccc2cc3ccc(NC(=O)NCCc4ccccc4)cc3nc2c1 only.
// result > 100 µM

// query Write down TGI measured for item COC(=O)c1cc(OS(=O)(=O)C(F)(F)F)c(=O)n2c1CCCC2
// result > 100 µM

// query Determine its reported TGI: COc1cc2c(cc1OC)C1c3ccccc3CCN1CCC2 (centres undefined)
// result > 100 µM

// query Assign TGI to the following record: CC1=NN(c2nc(N)nc(CSc3cc(Cl)c(C)cc3S(N)(=O)=O)n2)C(C)(C)C1
// result > 10 µM

// query Quote TGI reported for O=c1[nH]c2cc([N+](=O)[O-])ccc2nc1/C(=N/Nc1ccccc1)C(O)c1ccco1 (centres undefined) please.
// result > 100 µM

// query Report TGI, nothing else, for this compound: CCOC(=O)c1nc2ccccc2nc1NCc1ccc(OC)c(OC)c1
// result > 100 µM

// query Check the records and state TGI for CCOc1ccccc1NC(=O)C(=O)C(/C(=N/N)C(=O)OC)c1nc2ccc([N+](=O)[O-])cc2[nH]c1=O (centres undefined)
// result > 100 µM

// query Please look at this compound and report its TGI: Cn1c2c(c3ccccc31)CCN=C2C1CCCOC1=O (centres undefined)
// result > 100 µM

// query Query TGI for CSc1nc(Nc2ccccc2Cl)c2c(N)nn(C)c2n1
// result > 100 µM

// query Specify measured TGI for COc1ccc2c(c1)c1c(n2CCN2CCOCC2)-c2cccc(OC)c2CC1 .
// result > 100 µM

// query For the compound COC(=O)CCC1=NCC(C)(C)O1 , give its reported TGI.
// result > 10 µM

// query For the compound Cc1cc(N(CCC#N)CCC#N)ccc1N=Nc1cc(Cl)ccc1Cl , give its reported TGI.
// result 9.68 µM

// query Identify the reported TGI for the following entry. O=C(Nn1c(-c2cccs2)nc2ccc(I)cc2c1=O)c1ccccc1
// result 51 µM

// query Return TGI (reported value) for this compound: COC(=O)c1cccc2c3ccccc3c3ccccc3c12
// result > 100 µM

// query Give reported TGI value for C=C1C(=O)OC2C1C(OC(=O)/C(C)=C/C)CC(O)(CCl)C1C(O)C=C(C)C21O (centres undefined)
// result 11.4 µM

// query Name the recorded TGI of the item O=C(Cc1nc2sc3c(c2c(=O)[nH]1)CCCC3)Nc1ccccc1 in your answer.
// result > 100 µM
